ASSAY TARGET: human renal renin (Homo sapiens, UniProt P00797)
Construct: human renal renin, free from acid proteolytic activity; from tissue
Sequence (P00797 67-406): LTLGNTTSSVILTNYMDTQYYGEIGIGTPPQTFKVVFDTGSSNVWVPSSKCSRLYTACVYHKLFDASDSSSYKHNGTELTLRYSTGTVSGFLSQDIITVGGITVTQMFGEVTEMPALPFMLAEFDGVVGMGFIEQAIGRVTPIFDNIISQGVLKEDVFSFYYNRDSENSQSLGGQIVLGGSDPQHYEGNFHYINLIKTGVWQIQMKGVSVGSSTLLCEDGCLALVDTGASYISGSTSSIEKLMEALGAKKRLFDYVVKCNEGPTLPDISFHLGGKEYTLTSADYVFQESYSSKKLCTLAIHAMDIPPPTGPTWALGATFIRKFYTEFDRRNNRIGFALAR
ASSAY NAME: Inhibition of human renal renin in vitro; angiotensin I formed measured by radioimmunoassay
Assay type: biochemical
EXPERIMENTAL ENDPOINT: IC50 (nM)
Report the figure in nM without appending any unit label.

CC(C)C[C@H](NC(=O)[C@H](Cc1ccccc1)NC(=O)OCCCOC(=O)CNC(=O)OCc1ccccc1)C(=O)N[C@@H](CC1CCCCC1)[C@@H](O)[C@@H](O)CC(C)C : 0.5
CC(C)C[C@H](O)[C@H](O)[C@H](CC1CCCCC1)NC(=O)[C@H](Cc1c[nH]cn1)NC(=O)[C@H](Cc1ccccc1)NC(=O)C1CCN(C(=O)OCc2ccccc2)CC1 : 0.8
CC(C)C[C@H](O)[C@H](O)[C@H](CC1CCCCC1)NC(=O)[C@H](Cc1cnc[nH]1)NC(=O)[C@H](Cc1ccccc1)NC(=O)N1CCOCC1 : 0.5

The measured IC50 that `CC(C)C[C@H](O)[C@H](O)[C@H](CC1CCCCC1)NC(=O)[C@H](Cc1c[nH]cn1)NC(=O)[C@H](CCc1ccccc1)NC(=O)C(C)C` showed for human renal renin (Homo sapiens, UniProt P00797) is 0.55

GET /values?item= `CC(C)C[C@H](O)[C@H](O)[C@H](CC1CCCCC1)NC(=O)[C@H](Cc1c[nH]cn1)NC(=O)[C@H](Cc1ccccc1)NC(=O)OCc1ccccc1` &system= human renal renin (Homo sapiens, UniProt P00797) returns IC50: 0.6

Numbers sourced from patent US5032577A.
